molecular target: EBP-Ig (N-terminal 225 amino acids of the human EPO receptor joined to an Ig heavy chain) (Homo sapiens, UniProt P19235); construct: Ig heavy chain (fusion partner); made in house; host or cells: NSO cells (secreted into conditioned media); experiment: Inhibition of [125I]EPO binding to immobilized EBP-Ig (EPO binding protein-Ig), scintillation Flash plate competition assay; conditions: 50 μM compound; Table 16A
Sequence (P19235 25-250 limits assumed): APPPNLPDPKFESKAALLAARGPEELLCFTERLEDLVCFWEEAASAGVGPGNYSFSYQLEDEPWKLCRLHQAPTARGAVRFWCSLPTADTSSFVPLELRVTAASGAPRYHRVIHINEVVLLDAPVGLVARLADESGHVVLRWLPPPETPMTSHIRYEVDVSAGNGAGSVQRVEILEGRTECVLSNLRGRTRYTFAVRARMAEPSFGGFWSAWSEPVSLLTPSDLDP
propertyName: EPO/EBP-Ig % inh @ 50 μM (%)
Give bare numbers, in %.

| querySmiles | EPO/EBP-Ig % inh @ 50 μM (%) |
| --- | --- |
| CC(=O)O.COC(=O)[C@H](CO)N(C/C=C/c1ccc(-c2ccccc2)cc1)C/C=C/c1ccc(-c2ccccc2)cc1 | 10 |
| CC(C)(C)OC[C@@H](C(=O)O)N(C/C=C/c1cccc(Oc2ccc(C(C)(C)C)cc2)c1)C/C=C/c1cccc(Oc2ccc(C(C)(C)C)cc2)c1 | 19 |

Lab note: COC(=O)[C@H](COC(C)(C)C)N(C/C=C/c1cccc(Oc2ccc(C(C)(C)C)cc2)c1)C/C=C/c1cccc(Oc2ccc(C(C)(C)C)cc2)c1 gave EPO/EBP-Ig % inh @ 50 μM of 9

----------
Would you kindly list IC50 for each of these compounds?
molecular target: EBP-Ig (N-terminal 225 amino acids of the human EPO receptor joined to an Ig heavy chain) (Homo sapiens, UniProt P19235); construct: Ig heavy chain (fusion partner); made in house; host or cells: NSO cells (secreted into conditioned media); test: Inhibition of [125I]EPO binding to immobilized EBP-Ig (EPO binding protein-Ig), scintillation Flash plate competition assay; details: read-out: IC50, μM (Inhibition of EPO binding to EBP-Ig); 0.5 nM [125I]EPO; concentration reducing corrected total binding to 50%
One number for each entry, in µM.

| compound | IC50, µM |
| --- | --- |
| COc1cccc(CCNC(=O)C(CCCCNC(=O)CCC(=O)O)N(CC=Cc2ccccc2)CC=Cc2ccccc2)c1 (stereo not shown) [compound 237] | 70 |

Batch request: IC50 for each of the following compounds.
1. CC(C)(CC(=O)O)CC(=O)NCCCCC(C(=O)NCCCOCCCCOCCCNC(=O)C(CCCCNC(=O)CC(C)(C)CC(=O)O)N(Cc1ccc(OCc2ccccc2)cc1)Cc1ccc(OCc2ccccc2)cc1)N(Cc1ccc(OCc2ccccc2)cc1)Cc1ccc(OCc2ccccc2)cc1 (stereo not shown) [compound 267]
2. NCCCCC(C(=O)NCc1ccc(OCC=Cc2ccccc2)cc1)N(CC=Cc1ccccc1)CC=Cc1ccccc1 (stereo not shown) [compound 220]
3. O=C(O)CCC(=O)NCCCCC(C(=O)NCCCCCCCCCCCCNC(=O)C(CCCCNC(=O)CCC(=O)O)N(Cc1ccc(OCc2ccccc2)cc1)Cc1ccc(OCc2ccccc2)cc1)N(Cc1ccc(OCc2ccccc2)cc1)Cc1ccc(OCc2ccccc2)cc1 (stereo not shown) [compound 270]
4. NCCCCC(C(=O)NCCc1ccccc1)N(C/C=C/c1cccc(Oc2ccccc2)c1)C/C=C/c1cccc(Oc2ccccc2)c1 (stereo not shown) [compound 239]
5. O=C(O)C(CO)N(CC=Cc1ccc(-c2ccccc2)cc1)CC=Cc1ccc(-c2ccccc2)cc1 (stereo not shown) [compound 305]
6. NCCCCC(C(=O)NCCc1ccccc1)N(CC=Cc1ccccc1)CC=Cc1ccccc1 (stereo not shown) [compound 227]
7. COc1ccc(CCNC(=O)C(CCCCN)N(C/C=C/c2ccccc2)C/C=C/c2ccccc2)cc1OC (stereo not shown) [compound 221]

1: 6; 2: 50; 3: 100; 4: 50; 5: 225; 6: 50; 7: 80
